system-under-test: UniProt Q8NER1
assay-explanation: Functional assay: block of capsaicin-induced Ca2+ influx, human assay (hTRPV1/HEK293, FLIPR)
condition-parameters: hTRPV1/HEK293 cells, 150 nM capsaicin challenge, Fluo-3 fluorescence; mean; > value = solubility limit in assay medium
value-type: pIC50
Please note pIC50 is a logarithmic value: minus log10 of concentration in mol/L. Answer with that number alone.

Field: example entries. Status: answers known.
[[record]]
compound = "O=S(=O)(c1ccc(Nc2ncnc3sc(Nc4c(Cl)cccc4Cl)nc23)cc1)N1CCCC1"
result_value = 9.00

[[record]]
compound = "CS(=O)(=O)c1ccc(Nc2ncnc3sc(Nc4ccccc4C(F)(F)F)nc23)cc1"
result_value = 6.25

[[record]]
compound = "Cc1cccc(C)c1Nc1nc2c(Nc3ccc(S(=O)(=O)N(C)C)cc3)ncnc2s1"
result_value = 7.82


Next compound, pIC50 to be filled in.
Record lookup: for UniProt Q8NER1, what pIC50 belongs to OCC1CN(c2nc(Nc3ccc(C(F)(F)F)c(Cl)c3)c3nc(Nc4c(Cl)cccc4Cl)sc3n2)CCO1 (racemic) ? 5.81

----------
system-under-test: rat TRPV1 (Rattus norvegicus, UniProt O35433)
Sequence (O35433 whole entry): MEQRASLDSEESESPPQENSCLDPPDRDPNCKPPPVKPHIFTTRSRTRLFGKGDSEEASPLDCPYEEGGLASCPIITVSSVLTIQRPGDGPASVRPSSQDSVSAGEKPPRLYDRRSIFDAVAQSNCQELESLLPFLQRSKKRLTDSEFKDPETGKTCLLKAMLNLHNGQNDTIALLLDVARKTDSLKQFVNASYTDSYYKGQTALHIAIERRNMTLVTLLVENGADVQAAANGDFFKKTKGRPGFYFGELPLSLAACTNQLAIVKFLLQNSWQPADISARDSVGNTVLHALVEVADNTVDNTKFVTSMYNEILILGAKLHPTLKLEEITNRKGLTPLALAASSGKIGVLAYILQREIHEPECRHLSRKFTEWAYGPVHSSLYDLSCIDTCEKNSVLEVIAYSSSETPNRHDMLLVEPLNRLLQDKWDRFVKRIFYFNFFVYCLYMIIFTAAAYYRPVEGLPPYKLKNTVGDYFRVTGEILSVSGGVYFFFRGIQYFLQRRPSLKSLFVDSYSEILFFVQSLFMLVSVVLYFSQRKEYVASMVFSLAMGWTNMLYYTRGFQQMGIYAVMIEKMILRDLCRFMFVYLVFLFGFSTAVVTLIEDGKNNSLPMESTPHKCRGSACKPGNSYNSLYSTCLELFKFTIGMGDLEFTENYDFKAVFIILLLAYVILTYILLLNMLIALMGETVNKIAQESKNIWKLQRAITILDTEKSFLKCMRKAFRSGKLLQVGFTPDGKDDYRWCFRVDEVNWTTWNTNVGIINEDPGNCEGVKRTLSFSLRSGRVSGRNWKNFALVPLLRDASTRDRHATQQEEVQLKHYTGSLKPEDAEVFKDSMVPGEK
assay-explanation: Functional assay: block of capsaicin-induced Ca2+ influx, rat assay (rTRPV1/HEK293, FLIPR)
condition-parameters: rTRPV1/HEK293 cells, capsaicin challenge, Fluo-3 fluorescence; mean; > value = solubility limit in assay medium
Catalogue of IC50 readings, one per entry.
Value expressed in nM; do not type the unit.

Requested read-out: IC50. Entry: `Cc1cccc(C)c1Nc1nc2c(Nc3ccc(S(N)(=O)=O)cc3)ncnc2s1` 3620

For `Cc1nc(Nc2ccc(C(C)(C)C)cc2)c2nc(Nc3c(C)noc3C)sc2n1` then? 162

Same question for `Cc1nc(Nc2ccc(C(F)(F)F)c(F)c2)c2nc(Nc3c(C)cccc3C)sc2n1` please. 25

// repeat for `Cc1cccc(Cl)c1Nc1nc2c(Nc3ccc(C(F)(F)F)cc3)ncnc2s1` and report 1

----------
Below, each entry is listed with its recorded pIC50.
system-under-test: UniProt O35433
assay-explanation: Functional assay: block of capsaicin-induced Ca2+ influx, rat assay (rTRPV1/HEK293, FLIPR)
condition-parameters: rTRPV1/HEK293 cells, capsaicin challenge, Fluo-3 fluorescence; mean; > value = solubility limit in assay medium
Please report pIC50 as the negative decimal logarithm of the molar concentration, giving only the number.

The examples below pair each entry with its known result.
[[record]]
molecule = "CSc1ccc(Nc2nc(C)nc3sc(Nc4c(Cl)cccc4Cl)nc23)cn1 [Example 185]"
result_value = 7.49

[[record]]
molecule = "CS(=O)(=O)c1ccc(Nc2ncnc3sc(Nc4c(Cl)cc(C#N)cc4Cl)nc23)cc1 [Example 236]"
result_value = 7.42


// below: pIC50 requested for another molecule
Param readout= pIC50; system= UniProt O35433; entry= O=S(=O)(c1ccc(Nc2ncnc3sc(Nc4c(Cl)cccc4Cl)nc23)cc1)N1CCNCC1 [Example 134] ; returns value. 7.11

----------
system-under-test: human TRPV1 (Homo sapiens)
assay-explanation: Functional assay: block of capsaicin-induced Ca2+ influx, human assay (hTRPV1/HEK293, FLIPR)
condition-parameters: hTRPV1/HEK293 cells, 150 nM capsaicin challenge, Fluo-3 fluorescence; mean; > value = solubility limit in assay medium
Below, each of the compounds is paired with its reported pIC50 value.
In plain terms, pIC50 is the concentration in mol/L turned into minus its base-10 logarithm.

[[record]]
smiles = "Cc1ccccc1Nc1nc2c(Nc3ccc(S(=O)(=O)N4CCCC4)cc3)ncnc2s1"
result_value = 8.52

[[record]]
smiles = "N#Cc1cc(Cl)c(Nc2nc3c(Nc4ccc(C(F)(F)F)cc4)ncnc3s2)c(Cl)c1"
result_value = 6.85

[[record]]
smiles = "COC(=O)c1scc(C)c1Nc1nc2c(Nc3ccc(C(F)(F)F)nc3)ncnc2s1"
result_value = 6.43


Give its pIC50 value. Item: `FC(F)(F)c1ccc(Nc2ncnc3sc(Nc4c(Cl)cc(CN5CCOCC5)cc4Cl)nc23)cc1` 6.65

----------
system-under-test: human TRPV1 (Homo sapiens, UniProt Q8NER1)
Sequence (Q8NER1 whole entry): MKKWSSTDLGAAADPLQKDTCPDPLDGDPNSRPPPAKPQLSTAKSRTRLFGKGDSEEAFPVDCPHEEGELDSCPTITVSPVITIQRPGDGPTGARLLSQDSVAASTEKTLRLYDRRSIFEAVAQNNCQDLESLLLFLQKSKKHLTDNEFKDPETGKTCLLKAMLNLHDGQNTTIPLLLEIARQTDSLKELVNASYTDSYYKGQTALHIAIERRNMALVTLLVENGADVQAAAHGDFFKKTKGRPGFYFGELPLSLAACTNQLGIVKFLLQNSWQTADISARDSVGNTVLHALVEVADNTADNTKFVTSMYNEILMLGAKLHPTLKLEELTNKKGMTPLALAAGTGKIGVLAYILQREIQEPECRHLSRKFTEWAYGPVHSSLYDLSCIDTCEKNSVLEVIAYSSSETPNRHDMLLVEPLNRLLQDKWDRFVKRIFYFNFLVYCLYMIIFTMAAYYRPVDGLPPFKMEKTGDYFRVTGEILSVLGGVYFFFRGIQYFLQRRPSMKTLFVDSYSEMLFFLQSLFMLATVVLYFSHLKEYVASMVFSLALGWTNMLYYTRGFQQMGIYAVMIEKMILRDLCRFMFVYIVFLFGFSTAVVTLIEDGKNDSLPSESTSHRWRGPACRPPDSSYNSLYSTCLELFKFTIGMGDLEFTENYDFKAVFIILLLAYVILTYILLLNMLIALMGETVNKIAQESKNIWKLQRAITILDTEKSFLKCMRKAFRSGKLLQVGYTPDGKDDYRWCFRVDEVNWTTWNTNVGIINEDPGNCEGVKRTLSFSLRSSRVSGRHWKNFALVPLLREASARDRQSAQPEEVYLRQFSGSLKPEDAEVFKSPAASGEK
assay-explanation: Functional assay: block of capsaicin-induced Ca2+ influx, human assay (hTRPV1/HEK293, FLIPR)
condition-parameters: hTRPV1/HEK293 cells, 150 nM capsaicin challenge, Fluo-3 fluorescence; mean; > value = solubility limit in assay medium
value-type: IC50 (nM)
Dear colleague, please return just the value in nM, with no unit written.

[[record]]
smiles = "Cc1cccc(Cl)c1Nc1nc2c(Nc3ccc(C(F)(F)F)nc3)ncnc2s1"
result_value = 13


# IC50 lookup, item `Cc1nc(Nc2ccc(C(F)(F)F)cc2)c2nc(Nc3ccccc3S(C)(=O)=O)sc2n1` 312

----------
system-under-test: human TRPV1 (Homo sapiens)
assay-explanation: Functional assay: block of capsaicin-induced Ca2+ influx, human assay (hTRPV1/HEK293, FLIPR)
condition-parameters: hTRPV1/HEK293 cells, 150 nM capsaicin challenge, Fluo-3 fluorescence; mean; > value = solubility limit in assay medium
value-type: pIC50
As a rule, pIC50 stands for the negative log10 of the concentration, concentration in M.

These recorded examples may help you get a feel for the data.
[[record]]
molecule = "Cc1cccc(C)c1Nc1nc2c(Nc3ccc(S(=O)(=O)C(F)(F)F)cc3)ncnc2s1"
value_type = "pIC50"
result_value = 7.77

[[record]]
molecule = "FC(F)(F)c1ccc(Nc2nc(N3CCCCC3)nc3sc(Nc4c(Cl)cccc4Cl)nc23)cc1"
value_type = "pIC50"
result_value = 7.20

[[record]]
molecule = "NCc1cc(Cl)c(Nc2nc3c(Nc4ccc(C(F)(F)F)cc4)ncnc3s2)c(Cl)c1"
value_type = "pIC50"
result_value = 6.81

[[record]]
molecule = "COC(=O)c1cc(Cl)c(Nc2nc3c(Nc4ccc(C(F)(F)F)cc4)ncnc3s2)c(Cl)c1"
value_type = "pIC50"
result_value = 6.09


Any idea what its pIC50 is? The molecule is `Cc1nc(Nc2ccc(C)c(F)c2)c2nc(Nc3c(C)cccc3C)sc2n1` 6.76

Item: Cc1nc(NC2CCC(C(C)(C)C)CC2)c2nc(Nc3c(Cl)cccc3Cl)sc2n1 (mixture of isomers) 5.96

Can you check `Cc1nc(Nc2ccc(C(F)(F)F)cc2)c2nc(Nc3c(Cl)cccc3Cl)sc2n1` next? 8.52

----------
system-under-test: rat TRPV1 (Rattus norvegicus, UniProt O35433)
assay-explanation: Functional assay: block of capsaicin-induced Ca2+ influx, rat assay (rTRPV1/HEK293, FLIPR)
condition-parameters: rTRPV1/HEK293 cells, capsaicin challenge, Fluo-3 fluorescence; mean; > value = solubility limit in assay medium
value-type: pIC50
Quick note: pIC50 values are minus log10 of concentrations in mol/L.

Previously resolved entries follow.
[[record]]
smiles = "CN1CCN(c2nc(Nc3ccc(C(F)(F)F)cc3)c3nc(Nc4c(Cl)cccc4Cl)sc3n2)CC1"
result_value = 5.88

[[record]]
smiles = "Cc1cccc(C)c1Nc1nc2c(Nc3ccc(S(C)(=O)=O)cc3)ncnc2s1"
result_value = 8.40

[[record]]
smiles = "Cc1nc(Nc2ccc(C(F)(F)F)cc2)c2nc(Nc3cccc4nsnc34)sc2n1"
result_value = 4.90

[[record]]
smiles = "FC(F)(F)c1ccc(Nc2ncnc3sc(Nc4ccccc4)nc23)cc1"
result_value = 5.57


Switching to the query record.
// pIC50 lookup, key: `CC(=O)c1ccc(Nc2nc(C)nc3sc(Nc4c(Cl)cccc4Cl)nc23)cc1` 8.52

----------
Items are presented alongside their recorded IC50.
system-under-test: human TRPV1 (Homo sapiens, UniProt Q8NER1)
assay-explanation: Functional assay: block of capsaicin-induced Ca2+ influx, human assay (hTRPV1/HEK293, FLIPR)
condition-parameters: hTRPV1/HEK293 cells, 150 nM capsaicin challenge, Fluo-3 fluorescence; mean; > value = solubility limit in assay medium

[[record]]
compound = "CS(=O)(=O)c1ccc(Nc2ncnc3sc(Nc4c(Cl)cccc4Cl)nc23)cc1"
system_under_test = "human TRPV1 (Homo sapiens, UniProt Q8NER1)"
result_value = "6 nM"

[[record]]
compound = "Cc1nc(Nc2ccc(OC(F)(F)F)cc2)c2nc(Nc3c(Cl)cccc3Cl)sc2n1"
system_under_test = "human TRPV1 (Homo sapiens, UniProt Q8NER1)"
result_value = "36 nM"

[[record]]
compound = "Cc1cccc(C)c1Nc1nc2c(Nc3ccc(C(N)=O)cc3)ncnc2s1"
system_under_test = "human TRPV1 (Homo sapiens, UniProt Q8NER1)"
result_value = "> 20000 nM"

[[record]]
compound = "Cc1cccc(C)c1Nc1nc2c(Nc3ccc(C(=O)N(C)C)cc3)ncnc2s1"
system_under_test = "human TRPV1 (Homo sapiens, UniProt Q8NER1)"
result_value = "452 nM"

[[record]]
compound = "Cc1cccc(C)c1Nc1nc2c(Nc3ccc(S(=O)(=O)C(C)C)cc3)ncnc2s1"
system_under_test = "human TRPV1 (Homo sapiens, UniProt Q8NER1)"
result_value = "87 nM"


Fill in the blank: the reported IC50 of `Oc1ccc(Nc2ncnc3sc(Nc4c(Cl)cccc4Cl)nc23)cc1O` is ____. > 6670 nM
